- Test system: E6SM
- TEST NAME: Tested for antiviral activity against VSV-virus in human embryonic skin muscle fibroblasts
- Assay type: functional
- CONDITION SUMMARY: Muscle tissue
QUANTITY KIND: MIC (µg/mL)
Reply with just the number (in µg/mL).

Measured MIC of Nc1nc2c(ncn2COCCO)c(=O)[nH]1 : 48

According to the records, this molecule Nc1nc2c(ncn2COC(CO)CO)c(=O)[nH]1 displays MIC of 9.6

// MIC lookup, molecule = NC(=O)c1ncn([C@@H]2O[C@H](CO)[C@@H](O)[C@H]2O)n1 , result: 400

====

- Test system: E6SM
- TEST NAME: Tested for antiviral activity against herpes simplex virus type 1(KOS) in E6SM cell line(human embryonic skin-muscle fibroblasts)
- Type: functional
I'd appreciate it if you could supply MIC values for the items below.

Per the record, C/C(=N/N=C(/S)N/N=C(\S)c1ccc(Cl)cc1Cl)C12CC3CC(CC(C3)C1)C2 has MIC of > 16 mg/L

Per the record, C/C(=N/N=C(/S)NN)C12CC3CC(CC(C3)C1)C2 has MIC of > 16 µM

Query S=C(N/N=C(/c1ccccn1)C12CC3CC(CC(C3)C1)C2)NNC(=S)c1ccc(Cl)cc1Cl yields MIC of > 16 mg/L

# MIC of N/N=C(\S)N/N=C(/c1ccccn1)C12CC3CC(CC(C3)C1)C2 = > 16 mg/L

// S=C(N/N=C(/c1ccccn1)C12CC3CC(CC(C3)C1)C2)NNC(=S)c1ccc(Cl)cc1 : MIC value = > 16 mg/L

Form: compound = C/C(=N/N=C(/S)N/N=C(\S)c1ccc(Cl)cc1)C12CC3CC(CC(C3)C1)C2 ; MIC = > 40 mg/L
